protocol-summary: Tissue Distribution in Rats
Type: in vivo, rat
conditions: male, lung; rat, 5 mg/kg oral, 2 hr post dose; read-out: Tissue to Plasma Ratio, Lung
assay-readout: Kp at 2 h
Enter a number only.

I would be grateful if you could share the reported Kp at 2 h for Cc1cc(-c2cncc([C@@H](O)C(F)(F)F)c2)nc2c1C(=O)N(c1cnn(CC(F)F)c1)C2(C)C . 1.38

* * *

protocol-summary: Oral pharmacokinetics / bioavailability
Type: in vivo
conditions: in vivo; Monkey, single oral, 5 mg/kg nominal, spray-dried dispersion
assay-readout: AUC(0-inf)

I would be grateful if you could share the reported AUC(0-inf) for Cc1cc(-c2cncc([C@@H](O)C(F)(F)F)c2)nc2c1C(=O)N(c1cnn(CC(F)F)c1)C2(C)C . 12500 ng·h/mL

* * *

protocol-summary: Tissue Distribution in Rats
Assay type: in vivo, rat
conditions: male, lung; rat, 5 mg/kg oral, 7 hr post dose; read-out: Tissue to Plasma Ratio, Lung
assay-readout: Kp at 7 h
Enter a number only.

I would be grateful if you could share the reported Kp at 7 h for Cc1cc(-c2cncc([C@@H](O)C(F)(F)F)c2)nc2c1C(=O)N(c1cnn(CC(F)F)c1)C2(C)C . 1.22

* * *

protocol-summary: Permeability in Caco-2 cell line
Assay type: in vitro ADME
conditions: human; Caco-2, 5 μM, B > A
assay-readout: Papp B→A at 1 h, 5 μM (×10⁻⁶ cm/s)
# unit: ×10⁻⁶ cm/s | format: bare number

I would be grateful if you could share the reported Papp B→A at 1 h, 5 μM for Cc1cc(-c2cncc([C@@H](O)C(F)(F)F)c2)nc2c1C(=O)N(c1cnn(CC(F)F)c1)C2(C)C [Compound 1] . 60.7

* * *

protocol-summary: Permeability in Caco-2 cell line
Assay type: in vitro ADME
conditions: human, Caco-2, Caco-2, 5 μM, A > B
assay-readout: recovery at 1 h, 5 μM

I would be grateful if you could share the reported recovery at 1 h, 5 μM for Cc1cc(-c2cncc([C@@H](O)C(F)(F)F)c2)nc2c1C(=O)N(c1cnn(CC(F)F)c1)C2(C)C . 87%

* * *

protocol-summary: Tissue Distribution in Rats
Format: in vivo, rat
conditions: male, kidney; rat, 5 mg/kg oral, 0.5 hr post dose; read-out: Tissue to Plasma Ratio, Kidney
assay-readout: Kp at 0.5 hr

I would be grateful if you could share the reported Kp at 0.5 hr for Cc1cc(-c2cncc([C@@H](O)C(F)(F)F)c2)nc2c1C(=O)N(c1cnn(CC(F)F)c1)C2(C)C . 1.75

* * *

protocol-summary: Oral pharmacokinetics / bioavailability
Type: in vivo
conditions: in vivo; Dog, single oral, 3 mg/kg nominal, spray-dried dispersion
assay-readout: Cmax

I would be grateful if you could share the reported Cmax for Cc1cc(-c2cncc([C@@H](O)C(F)(F)F)c2)nc2c1C(=O)N(c1cnn(CC(F)F)c1)C2(C)C . 1290 ng/mL

* * *

protocol-summary: Permeability in Caco-2 cell line
Assay type: in vitro ADME
conditions: human, Caco-2, Caco-2, 5 μM, A > B
assay-readout: Papp A→B at 1 h, 5 μM (×10⁻⁶ cm/s)
# unit: ×10⁻⁶ cm/s | format: bare number

I would be grateful if you could share the reported Papp A→B at 1 h, 5 μM for Cc1cc(-c2cncc([C@@H](O)C(F)(F)F)c2)nc2c1C(=O)N(c1cnn(CC(F)F)c1)C2(C)C . 18
